# Target of assay: PTPN3 PDZ (PTPN3) (Homo sapiens, UniProt P26045)
# Sequence (P26045 505-597): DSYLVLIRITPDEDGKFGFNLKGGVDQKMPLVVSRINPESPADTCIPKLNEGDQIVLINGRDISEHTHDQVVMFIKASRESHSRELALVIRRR
Residues, ends and D or L forms follow the SMILES beside them.
Here the recorded pIC50 is given for each entry.
Just so you know, pIC50 here is -log10 of the concentration in molar units; reply with that number alone.

Take a look at these entries with their results.
[[record]]
compound = "CC(C)C[C@H](NC(=O)[C@H](CCC(N)=O)NC(=O)[C@@H](NC(=O)[C@H](CC(=O)O)NC(=O)[C@H](CCC(N)=O)NC(=O)[C@@H](NC(=O)[C@@H](NC(=O)[C@H](CCCNC(=N)N)NC(=O)[C@H](CO)NC(=O)[C@@H](N)CO)[C@@H](C)O)C(C)C)[C@@H](C)O)C(=O)O [CFTRP1Q] (H-SSRTVQDTQL-OH)"
measured_attribute = "pIC50"
test_result = 4.29

[[record]]
compound = "CC(C)C[C@H](NC(=O)[C@H](CCCNC(=N)N)NC(=O)[C@@H](NC(=O)[C@H](CC(=O)O)NC(=O)[C@H](CCCNC(=N)N)NC(=O)[C@@H](NC(=O)[C@@H](NC(=O)[C@H](CCCNC(=N)N)NC(=O)[C@H](CO)NC(=O)[C@@H](N)CO)[C@@H](C)O)C(C)C)[C@@H](C)O)C(=O)O [CFTRP4R] (H-SSRTVRDTRL-OH)"
measured_attribute = "pIC50"
test_result = 4.07

[[record]]
compound = "CC(C)C[C@H](NC(=O)[C@H](CCC(N)=O)NC(=O)[C@@H](NC(=O)[C@H](CCC(=O)O)NC(=O)[C@H](CCC(N)=O)NC(=O)[C@H](CCCNC(=N)N)NC(=O)[C@@H](NC(=O)[C@H](CCCNC(=N)N)NC(=O)[C@H](CO)NC(=O)[C@@H](N)CO)[C@@H](C)O)[C@@H](C)O)C(=O)O [HPVP4Q] (H-SSRTRQETQL-OH)"
measured_attribute = "pIC50"
test_result = 4.74


Incoming: For the compound CC(C)C[C@H](NC(=O)[C@H](CCCNC(=N)N)NC(=O)[C@@H](NC(=O)[C@H](CC(=O)O)NC(=O)[C@H](CCC(N)=O)NC(=O)[C@H](CCCNC(=N)N)NC(=O)[C@@H](NC(=O)[C@H](CCCNC(=N)N)NC(=O)[C@H](CO)NC(=O)[C@@H](N)CO)[C@@H](C)O)[C@@H](C)O)C(=O)O [CFTRP5R] (H-SSRTRQDTRL-OH) , give its reported pIC50.
Outgoing: 3.92

====

Here the recorded Ki is given for each entry.
# Target of assay: TIP-1 PDZ (Homo sapiens)
# Sequence (O14907 9-120): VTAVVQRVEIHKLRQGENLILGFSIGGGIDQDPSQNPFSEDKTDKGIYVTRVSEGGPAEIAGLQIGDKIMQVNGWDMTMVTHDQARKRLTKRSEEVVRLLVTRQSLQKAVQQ
Residues, ends and D or L forms follow the SMILES beside them.
Write the number in µM without appending the unit.

Take a look at these entries with their results.
[[record]]
molecule = "CC(C)C[C@H](NC(=O)[C@H](CCC(N)=O)NC(=O)[C@@H](NC(=O)[C@H](CCC(=O)O)NC(=O)[C@H](CCC(N)=O)NC(=O)[C@H](CCCNC(=N)N)NC(=O)[C@@H](NC(=O)[C@H](CCCNC(=N)N)NC(=O)[C@H](CO)NC(=O)[C@@H](N)CO)[C@@H](C)O)[C@@H](C)O)C(=O)O [HPVP4Q] (H-SSRTRQETQL-OH)"
test_result = 34

[[record]]
molecule = "CC(C)C[C@H](NC(=O)[C@H](CCC(N)=O)NC(=O)[C@@H](NC(=O)[C@H](CCC(=O)O)NC(=O)[C@H](CCCNC(=N)N)NC(=O)[C@H](CCCNC(=N)N)NC(=O)[C@@H](NC(=O)[C@H](CCCNC(=N)N)NC(=O)[C@H](CO)NC(=O)[C@@H](N)CO)[C@@H](C)O)[C@@H](C)O)C(=O)O"
test_result = 11

[[record]]
molecule = "CC(C)C[C@H](NC(=O)[C@H](CCCNC(=N)N)NC(=O)[C@@H](NC(=O)[C@H](CCC(=O)O)NC(=O)[C@H](CCCNC(=N)N)NC(=O)[C@H](CCCNC(=N)N)NC(=O)[C@@H](NC(=O)[C@H](CCCNC(=N)N)NC(=O)[C@H](CO)NC(=O)[C@@H](N)CO)[C@@H](C)O)[C@@H](C)O)C(=O)O [HPVP1R] (H-SSRTRRETRL-OH)"
test_result = 22


Incoming: For the molecule CC(C)C[C@H](NC(=O)[C@H](CCC(N)=O)NC(=O)[C@@H](NC(=O)[C@H](CCC(=O)O)NC(=O)[C@H](CCCNC(=N)N)NC(=O)[C@@H](NC(=O)[C@@H](NC(=O)[C@H](CCCNC(=N)N)NC(=O)[C@H](CO)NC(=O)[C@@H](N)CO)[C@@H](C)O)C(C)C)[C@@H](C)O)C(=O)O [HPVP5V] (H-SSRTVRETQL-OH) , give its reported Ki.
Outgoing: 35
